Reference source: PubChem BioAssay AID1963868

Test system: KRAS PDC tumor spheroids (HUVEC+MSC), viability;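 note: spheroids exposed to compounds for seven days before readout; 100% = DMSO vehicle control luminescence of the spheroids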
method-summary: Anticancer human tumor 254851-301-R-J1-PDC patient-derived colon carcinoma cell line growth inhibition [KRAS2]
experimental-context: second compound 10 µM; first compound 0.000316 µM; hits give low values
reported-property: viability, T/C (%)
Write the value in % as a bare number.

Checklist item: viability, T/C tested on KRAS PDC tumor spheroids (HUVEC+MSC), viability, entry CC(=O)Nc1cccc(-n2c(=O)n(C3CC3)c(=O)c3c(Nc4ccc(I)cc4F)n(C)c(=O)c(C)c32)c1 + COc1cc2nc(C)nc(NC(C)c3cc(N)cc(C(F)(F)F)c3)c2cc1OC1CCOC1 , value? 72.5

Any idea what viability, T/C came out for CC(=O)Nc1cccc(-n2c(=O)n(C3CC3)c(=O)c3c(Nc4ccc(I)cc4F)n(C)c(=O)c(C)c32)c1 + CC1OCC2(CCN(c3cnc(Sc4ccnc(N)c4Cl)c(N)n3)CC2)C1N on KRAS PDC tumor spheroids (HUVEC+MSC), viability? 59.7

What value of viability, T/C on KRAS PDC tumor spheroids (HUVEC+MSC), viability does CN(C)C/C=C/C(=O)Nc1cc2c(Nc3ccc(F)c(Cl)c3)ncnc2cc1O[C@H]1CCOC1 + CC1OCC2(CCN(c3cnc(Sc4ccnc(N)c4Cl)c(N)n3)CC2)C1N have? 85.5

Hi! What's the reported viability, T/C for Cn1ncnc1[C@H]1c2n[nH]c(=O)c3cc(F)cc(c23)N[C@@H]1c1ccc(F)cc1 + CC1OCC2(CCN(c3cnc(Sc4ccnc(N)c4Cl)c(N)n3)CC2)C1N on KRAS PDC tumor spheroids (HUVEC+MSC), viability? 68.5

Find the measured viability, T/C: item CC(C)n1nc(-c2ccc3oc(N)nc3c2)c2c(N)ncnc21 + CNCc1ccccc1-c1csc(C(C)Nc2nc(C)nc3cc(OC)c(OC)cc23)c1 , target or system KRAS PDC tumor spheroids (HUVEC+MSC), viability. 0.21
